Form field: growth (one value per entry).
Test system: TK-10 renal
experiment.notes: NCI-60 one-dose screen, 48 h (100 = growth as untreated, 0 = no growth, -100 = all killed)
settings: 10 µM unless noted
This is part of a sample that, as a whole, favours compounds with a hit. Of some 83,000 tested, about 20% had one in any assay.
Enter your answer as a number in %; do not include the unit.

Known growth results, listed for orientation:
{"compound": "NNc1ncccn1", "tested.system": "TK-10 renal", "observed": 92.2}
{"compound": "Nc1cccc2cccc(O)c12", "tested.system": "TK-10 renal", "observed": 83.7}
{"compound": "N#Cc1ccc(OC(=O)Nc2c(Cl)cc(Cl)cc2Cl)cc1", "tested.system": "TK-10 renal", "observed": 104}
{"compound": "COc1cc2c(c(OC)c1OC)-c1ccc(SC)c(=O)cc1[C@@H](NC1OC(CO)C(O)C(O)C1O)CC2 (some centres not stated)", "tested.system": "TK-10 renal", "observed": 42.1}
{"compound": "Cc1ccccc1NC(=O)Oc1ccc(Cl)cc1C(=O)c1ccccc1", "tested.system": "TK-10 renal", "observed": 113}

What does the data say about its growth? Entry: `O=C(N/N=C\c1ccc(Cl)cc1Cl)c1ccncc1`
91.4

Return reported growth; argument: `CC(C)c1ccccc1NC(=O)N1CCC(C(C)C)CC1`
127

Reported growth, compound `C/C(=N\N=C(/C)c1cccc([N+](=O)[O-])c1)c1cccc([N+](=O)[O-])c1` : ____
90.8

Report growth for `C[C@H](CCC[C@H](C)OS(=O)(=O)c1ccccc1)OS(=O)(=O)c1ccccc1` please.
103

Dear colleague, I am looking for the recorded growth of the following compound: `C=CCNC(=S)N/C=C(/C(=O)c1ccccc1)c1ccccc1`
107

Which growth value is on record for `O=S1(=O)c2ccccc2Oc2ccccc21` ?
101

Field request: growth | item: `C/C(Cc1ccccc1)=N\O`
103
